experimental details: Calculation of solubility parameter (SP value) by molecular dynamics (LAMMPS)
study conditions: calculated SP value against reference SP value of chloroform (approx. 9.4)
Recorded difference in SP value σ CHCl3 values for a group of compounds are listed next.

Reference set, count: 3
CCC(CC)N1C(=O)c2ccc3c4ccc5c6c(ccc(c7ccc(c2c37)C1=O)c64)C(=O)N(C(CC)CC)C5=O [(d) EtPr-PTCDI]	0.9
CCCCC(CC)CN1C(=O)c2ccc3c4ccc5c6c(ccc(c7ccc(c2c37)C1=O)c64)C(=O)N(CC(CC)CCCC)C5=O (stereo not shown)	1.0
CCCCCCCCN1C(=O)c2ccc3c4ccc5c6c(ccc(c7ccc(c2c37)C1=O)c64)C(=O)N(CCCCCCCC)C5=O	1.3

Now consider a different compound.
// difference in SP value σ CHCl3 lookup, key: `CN1C(=O)c2ccc3c4ccc5c6c(ccc(c7ccc(c2c37)C1=O)c64)C(=O)N(C)C5=O` 2.9

----------
experimental details: Solubility test of PTCDI compounds (1 mg, solvent added in 1 mL steps, ultrasonic treatment, visual check)
Type: physicochemical
study conditions: volume of tetrahydrofuran needed to dissolve 1 mg of compound
readout label: solvent [mL] THF

Reference set, count: 3
CCCCC(CC)CN1C(=O)c2ccc3c4ccc5c6c(ccc(c7ccc(c2c37)C1=O)c64)C(=O)N(CC(CC)CCCC)C5=O (stereo not shown)	16 mL
CCCCCCCCN1C(=O)c2ccc3c4ccc5c6c(ccc(c7ccc(c2c37)C1=O)c64)C(=O)N(CCCCCCCC)C5=O	>100 mL
CCC(CC)N1C(=O)c2ccc3c4ccc5c6c(ccc(c7ccc(c2c37)C1=O)c64)C(=O)N(C(CC)CC)C5=O [(d) EtPr-PTCDI]	1 mL

Now consider a different compound.
// solvent [mL] THF lookup, key: `CN1C(=O)c2ccc3c4ccc5c6c(ccc(c7ccc(c2c37)C1=O)c64)C(=O)N(C)C5=O` >100 mL

----------
experimental details: Solubility test of PTCDI compounds (1 mg, solvent added in 1 mL steps, ultrasonic treatment, visual check)
Type: physicochemical
study conditions: volume of chloroform needed to dissolve 1 mg of compound
Recorded solvent [mL] CHCl3 values for a group of compounds are listed next.
Numbers only here, please. The scale is mL.

Reference set, count: 2
CCCCC(CC)CN1C(=O)c2ccc3c4ccc5c6c(ccc(c7ccc(c2c37)C1=O)c64)C(=O)N(CC(CC)CCCC)C5=O (stereo not shown)	1
CCCCCCCCN1C(=O)c2ccc3c4ccc5c6c(ccc(c7ccc(c2c37)C1=O)c64)C(=O)N(CCCCCCCC)C5=O	55

// solvent [mL] CHCl3 lookup, key: CCC(CC)N1C(=O)c2ccc3c4ccc5c6c(ccc(c7ccc(c2c37)C1=O)c64)C(=O)N(C(CC)CC)C5=O [(d) EtPr-PTCDI] 1
